Source: PubChem BioAssay AID1347156

- protocol text: DAPI mCherry counterscreen qHTS for Zika virus inhibitors; further: nearly all actives have a fitted effect of over 55% in size
- measurement setup: Vero cells, DAPI nuclear count cytotoxicity, imaging 48-72 h, infected with Zika reporter virus, MOI 1; series mostly up to 32.6 µM
Records with an inconclusive call do not appear. Active and inactive are the calls of the source. The call rests on the fitted dose curve; in most records, active means well fitted cell-killing curve with a large enough effect; inconclusive means small, poorly fitted or top-dose-only effect; inactive means flat fitted curve, though single readings scatter.
Write down one outcome, taken from active, inactive

• O=C(O)c1ccc(CCCc2ccc(OCCc3ccc(F)cc3)cc2)o1 = active
• O=C(O)C1(Cc2cccc(Nc3nccs3)n2)CCC(Oc2cccc(Cl)c2F)CC1 (stereo unspecified) = active
• O=C(O)c1cnn(-c2nc3cc(OC(F)(F)F)c(Cl)cc3[nH]2)c1 = inactive
• Nc1ncnc2c1ncn2[C@@H]1O[C@H](CSCC[C@H](N)C(=O)O)[C@@H](O)[C@H]1O = inactive
• Cc1nc(N=Nc2ccc(S(=O)(=O)O)cc2S(=O)(=O)O)c(COP(=O)(O)O)c(C=O)c1O = inactive

Request: Hi, sorry to bother you, what did the test record for C/C(=C\c1ccc(C(=O)O)cc1)c1ccc2c(c1)C(C)(C)CCC2(C)C ?
Response: active

Request: // return assay outcome for Cc1c(C2(c3cc(C(C)C)c(O)c(Br)c3C)OS(=O)(=O)c3ccccc32)cc(C(C)C)c(O)c1Br
Response: inactive

Request: // param item: O=S(=O)(O)c1ccc2c(N=Nc3ccc(S(=O)(=O)O)c4ccccc34)c(O)c(S(=O)(=O)O)cc2c1 ; yields the recorded call
Response: inactive
